Could you please report measured PBM binding z-score for the items listed next?
- Test system: FXR:RXRa (NR concentration 270 nM, RXRa partner concentration 90 nM)
- protocol: PBM binding z-score (relative to random genomic background probes); higher = stronger binding; sequences stand for … in GC…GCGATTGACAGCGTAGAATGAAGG
Give bare numbers.

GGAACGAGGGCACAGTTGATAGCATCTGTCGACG ... 0.318
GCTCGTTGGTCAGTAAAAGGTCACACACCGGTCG ... 3.94
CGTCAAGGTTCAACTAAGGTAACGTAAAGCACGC ... 5.26

Give me PBM binding z-score for each of these sequences, listed below.
1. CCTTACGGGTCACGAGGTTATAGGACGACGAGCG
2. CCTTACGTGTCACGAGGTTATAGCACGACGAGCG
3. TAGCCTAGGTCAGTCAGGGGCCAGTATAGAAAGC

Found:
[6.8, 1.42, 1.42]

---

- Test system: FXR:RXRa (NR concentration 270 nM, RXRa partner concentration 90 nM)
- protocol: PBM binding z-score (relative to random genomic background probes); higher = stronger binding; sequences stand for … in GC…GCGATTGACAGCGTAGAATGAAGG
Field: PBM binding z-score. Provide a value for each of the sequences that follow.
Give bare numbers.

// solved cases for PBM binding z-score follow
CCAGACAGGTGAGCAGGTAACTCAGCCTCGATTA ... -0.268
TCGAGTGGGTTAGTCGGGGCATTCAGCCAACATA ... 0.26
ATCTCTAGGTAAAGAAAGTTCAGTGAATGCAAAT ... 0.762
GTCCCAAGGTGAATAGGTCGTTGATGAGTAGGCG ... 0.85
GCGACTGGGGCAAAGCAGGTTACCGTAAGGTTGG ... -0.0896

# per-item lookup of PBM binding z-score; items listed below
1. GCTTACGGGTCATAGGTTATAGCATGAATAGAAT
2. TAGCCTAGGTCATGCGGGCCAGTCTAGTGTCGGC
3. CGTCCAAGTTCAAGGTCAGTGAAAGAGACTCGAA
4. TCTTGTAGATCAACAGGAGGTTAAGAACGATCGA

Found:
1. 5.98
2. 3.89
3. 4.93
4. 0.185

---

- System: PPARg homodimer (NR concentration 180 nM)
- protocol: PBM binding z-score (relative to random genomic background probes); higher = stronger binding; sequences stand for … in GC…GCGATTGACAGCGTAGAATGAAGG
Give measured PBM binding z-score for each item. Keep answers brief.
Answers are plain numbers.

Okay, here is my list. What is PBM binding z-score for each of these?
1. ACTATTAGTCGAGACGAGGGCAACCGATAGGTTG
2. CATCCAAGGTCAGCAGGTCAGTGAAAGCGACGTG
3. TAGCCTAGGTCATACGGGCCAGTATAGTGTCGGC
4. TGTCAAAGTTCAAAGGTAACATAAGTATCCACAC

Found:
0.0526
4.34
0.811
3.31

Need PBM binding z-score for each of these sequences.
1. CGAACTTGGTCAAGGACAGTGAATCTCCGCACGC
2. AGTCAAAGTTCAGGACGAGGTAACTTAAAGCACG
3. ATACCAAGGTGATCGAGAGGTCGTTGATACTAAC
4. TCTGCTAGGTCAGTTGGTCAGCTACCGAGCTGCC

Found:
1. -0.784
2. 1.75
3. 1.08
4. -0.139
